// values below are reported pIC50
tested on: 252836-082-R-J2-PDC tumor spheroids, viability; assay: Anticancer human tumor 252836-082-R-J2-PDC patient-derived head and neck squamous cell carcinoma cell line growth inhibition [PI3K]; conditions: curve of first compound; second compound 0.1 µM; spheroids with HUVEC and MSC;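 also: spheroids exposed to agents for seven days before readout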
pIC50: −log10 of the molar value.

# annotated cases, reported pIC50 shown
compound="C[C@@H](NC(=O)c1ncnc(N)c1Cl)c1ncc(C(=O)Nc2cc(C(F)(F)F)c(Cl)cn2)s1 + CC(Nc1ncnc2nc[nH]c12)c1cc2cccc(Cl)c2c(=O)n1-c1ccccc1" result="< 5.00"
compound="CC(Cn1ccc(-c2ccc(C#N)c(Cl)c2)n1)NC(=O)c1cc(C(C)O)[nH]n1 (stereo unspecified) + CC(Nc1ncnc2nc[nH]c12)c1cc2cccc(Cl)c2c(=O)n1-c1ccccc1" result="< 5.00"

Which pIC50 is listed for CNC(=O)c1ccc(N2C(=S)N(c3ccc(C#N)c(C(F)(F)F)c3)C(=O)C2(C)C)cc1F + Cc1nc(NC(=O)N2CCCC2C(N)=O)sc1-c1ccnc(C(C)(C)C(F)(F)F)c1 ?
< 5.00

Which pIC50 is listed for CC(Cn1ccc(-c2ccc(C#N)c(Cl)c2)n1)NC(=O)c1cc(C(C)O)[nH]n1 (stereo unspecified) + CC(Nc1ccc2c(c1)OCCn1cc(N3C(=O)OCC3C(F)F)nc1-2)C(N)=O ?
< 5.00

Which pIC50 is listed for CC(Cn1ccc(-c2ccc(C#N)c(Cl)c2)n1)NC(=O)c1cc(C(C)O)[nH]n1 (stereo unspecified) + Cc1nc(NC(=O)N2CCCC2C(N)=O)sc1-c1ccnc(C(C)(C)C(F)(F)F)c1 ?
< 5.00

Which pIC50 is listed for CC1(C)CCC(Nc2ncc(C(F)(F)F)c(-c3c[nH]c4c(P(C)(C)=O)c(C#N)ccc34)n2)CN1 (stereo unspecified) + CC(Nc1ncnc2nc[nH]c12)c1cc2cccc(Cl)c2c(=O)n1-c1ccccc1 ?
> 7.50

Which pIC50 is listed for Cn1nccc1Nc1nccc(-c2ccn(C(CO)c3ccc(Cl)c(F)c3)c(=O)c2)n1 (stereo unspecified) + CC(Nc1ncnc2nc[nH]c12)c1cc2cccc(Cl)c2c(=O)n1-c1ccccc1 ?
< 5.00

Which pIC50 is listed for CCCS(=O)(=O)Nc1ccc(F)c(C(=O)c2c[nH]c3ncc(-c4ccc(Cl)cc4)cc23)c1F + Cc1nc(NC(=O)N2CCCC2C(N)=O)sc1-c1ccnc(C(C)(C)C(F)(F)F)c1 ?
5.32

Which pIC50 is listed for C=CC(=O)N1CCN(c2nc(=O)n(-c3c(C)ccnc3C(C)C)c3nc(-c4c(O)cccc4F)c(F)cc23)C(C)C1 (stereo unspecified) + Cc1nc(NC(=O)N2CCCC2C(N)=O)sc1-c1ccnc(C(C)(C)C(F)(F)F)c1 ?
< 5.00

Which pIC50 is listed for Cn1cnc2c(F)c(Nc3ccc(Br)cc3Cl)c(C(=O)NOCCO)cc21 + CC(Nc1ccc2c(c1)OCCn1cc(N3C(=O)OCC3C(F)F)nc1-2)C(N)=O ?
6.25

Which pIC50 is listed for CC(=O)c1c(C)c2cnc(Nc3ccc(N4CCNCC4)cn3)nc2n(C2CCCC2)c1=O + Cc1nc(NC(=O)N2CCCC2C(N)=O)sc1-c1ccnc(C(C)(C)C(F)(F)F)c1 ?
< 7.00
